The origin of these recorded values is the RNAGym collection of RNA variant scans (doi:10.1093/molbev/msab373).

B1: Azoarcus group I ribozyme (parent)
chain: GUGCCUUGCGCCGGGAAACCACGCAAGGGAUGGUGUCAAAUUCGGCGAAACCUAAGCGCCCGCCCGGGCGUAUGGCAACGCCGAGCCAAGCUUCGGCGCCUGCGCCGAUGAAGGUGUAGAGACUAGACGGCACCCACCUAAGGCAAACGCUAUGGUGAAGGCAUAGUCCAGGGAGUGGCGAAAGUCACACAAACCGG

variants of: B1; experiment: reverse-splicing fitness (ratio to wild type); higher = more active; in vitro selection; Mg2+ level not given
Reported values of reverse-splicing fitness for individual entries
Number, no unit, nothing else.

Some solved entries appear below for comparison.
C82A A111C A120C C169A U176G: 0.00712
C82A A111G A120U A145G C150G C169U: 0.00766
C82G A111G A120G A145C C150G C169A: 0.00962
A120U A145C C150G C169U U176A: 0.00626
C82U A111U A145U C169U U176C: 0.0127
C82A A111C A120G A145G C150A U176A: 0.00969

Give recorded reverse-splicing fitness. C82U A111U A120G A145C C150G C169A U176G 0.00478

Output reverse-splicing fitness of C82U A111U A145U C150U C169G U176A 0.0107

Given the variant C82G A120C A145C C150A U176A , write its reported reverse-splicing fitness. 0.012

Given A145U U176C , respond with its reverse-splicing fitness. 0.911

Identify the reported reverse-splicing fitness for the following entry. C82U A111G A120G A145G C150U C169U U176C 0.0162
